- target or test system: c-Myc protein (Homo sapiens)
- Construct: degradation of myc and GSPT1 proteins in HL60 cells; endogenous in cells; host or cells: HL60
- Sequence (P01106 whole entry): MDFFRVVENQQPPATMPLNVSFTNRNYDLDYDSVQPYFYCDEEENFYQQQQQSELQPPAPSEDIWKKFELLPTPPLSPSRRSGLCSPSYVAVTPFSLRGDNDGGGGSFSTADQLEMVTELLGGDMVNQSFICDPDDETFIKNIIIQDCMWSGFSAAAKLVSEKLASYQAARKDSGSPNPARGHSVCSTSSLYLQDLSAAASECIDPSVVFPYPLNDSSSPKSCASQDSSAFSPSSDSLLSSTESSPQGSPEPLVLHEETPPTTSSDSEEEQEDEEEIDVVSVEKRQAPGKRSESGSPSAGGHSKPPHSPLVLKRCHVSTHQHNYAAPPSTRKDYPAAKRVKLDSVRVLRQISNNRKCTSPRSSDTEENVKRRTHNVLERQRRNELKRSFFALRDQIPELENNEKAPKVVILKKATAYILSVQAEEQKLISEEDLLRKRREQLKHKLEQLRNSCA
- assay text: c-Myc protein degradation in HL60 cells (Western blot)
- Assay type: cell-based
- protocol conditions: HL-60, compound at 10 nM, 24 h, gray value relative to Ctrl (DMSO), read-out: Remaining amount of c-Myc protein (@10 nM/Ctrl)
Could you please mark 1 for values of remaining activity at 0.01 µM below 8% and 0 for values at or above it?

Below are worked cases with known answers.
O=C1CCC(N2Cc3cc(NC(=O)CC4CCN(c5ncc(-c6cccc7ccccc67)s5)CC4)ccc3C2=O)C(=O)N1 (stereo not drawn) [Compound A24] :: 1
O=C1CCC(N2Cc3cc(CNCC4CCN(c5ncc(-c6cccc(Cl)c6)cc5Cl)CC4)ccc3C2=O)C(=O)N1 (stereo not drawn) [Compound A75] :: 1
O=C1CCC(N2Cc3cc(CNCC4CCN(c5ncc(-c6cccc(Cl)c6)cc5C(F)(F)F)CC4)c(F)cc3C2=O)C(=O)N1 (stereo not drawn) [Compound A140] :: 0
O=C1CCC(N2Cc3cc(CNCC4CCN(c5ncc(-c6cccc(F)c6)cc5F)CC4)ccc3C2=O)C(=O)N1 (stereo not drawn) [Compound A108] :: 1
O=C1CCC(N2Cc3cc(NC(=O)CC4CCN(c5ncc(-c6cccc7ccccc67)cn5)CC4)ccc3C2=O)C(=O)N1 (stereo not drawn) [Compound A30] :: 0

Query block: is_below(remaining activity at 0.01 µM, 8%) for O=C1CCC(N2Cc3cc(NC(=O)CC4CCN(c5ncc(-c6cccc7ccccc67)o5)CC4)ccc3C2=O)C(=O)N1 (stereo not drawn) [Compound A28] ?
Result block: 0

Query block: is_below(remaining activity at 0.01 µM, 8%) for O=C1CCC(N2Cc3cc(CNCC4CCN(c5cnc(-c6cccc7ccccc67)cn5)CC4)ccc3C2=O)C(=O)N1 (stereo not drawn) [Compound A63] ?
Result block: 0

Query block: is_below(remaining activity at 0.01 µM, 8%) for O=C1CCC(N2Cc3cc(CNCC4CCN(c5ccc(-c6cccc(Cl)c6)cn5)CC4)ccc3C2=O)C(=O)N1 (stereo not drawn) [Compound A70] ?
Result block: 0

Query block: is_below(remaining activity at 0.01 µM, 8%) for O=C1CCC(N2Cc3cc(CNC(=O)C4CCN(c5ncc(-c6cccc(Cl)c6)cn5)CC4)ccc3C2=O)C(=O)N1 (stereo not drawn) [Compound A65] ?
Result block: 1

Query block: is_below(remaining activity at 0.01 µM, 8%) for O=C1CCC(N2Cc3cc(CNCC4(F)CCN(c5ncc(-c6cccc(Cl)c6)cc5C(F)(F)F)CC4)ccc3C2=O)C(=O)N1 (stereo not drawn) [Compound A83] ?
Result block: 1

Query block: is_below(remaining activity at 0.01 µM, 8%) for COc1cccc(-c2cnc(N3CCC(CNCc4ccc5c(c4)CN(C4CCC(=O)NC4=O)C5=O)CC3)c(C(F)(F)F)c2)c1 (stereo not drawn) [Compound A95] ?
Result block: 1

###

- target or test system: GSPT1 protein (Homo sapiens, UniProt P15170)
- Construct: degradation of myc and GSPT1 proteins in HL60 cells; endogenous in cells; host or cells: HL60
- Sequence (P15170 whole entry): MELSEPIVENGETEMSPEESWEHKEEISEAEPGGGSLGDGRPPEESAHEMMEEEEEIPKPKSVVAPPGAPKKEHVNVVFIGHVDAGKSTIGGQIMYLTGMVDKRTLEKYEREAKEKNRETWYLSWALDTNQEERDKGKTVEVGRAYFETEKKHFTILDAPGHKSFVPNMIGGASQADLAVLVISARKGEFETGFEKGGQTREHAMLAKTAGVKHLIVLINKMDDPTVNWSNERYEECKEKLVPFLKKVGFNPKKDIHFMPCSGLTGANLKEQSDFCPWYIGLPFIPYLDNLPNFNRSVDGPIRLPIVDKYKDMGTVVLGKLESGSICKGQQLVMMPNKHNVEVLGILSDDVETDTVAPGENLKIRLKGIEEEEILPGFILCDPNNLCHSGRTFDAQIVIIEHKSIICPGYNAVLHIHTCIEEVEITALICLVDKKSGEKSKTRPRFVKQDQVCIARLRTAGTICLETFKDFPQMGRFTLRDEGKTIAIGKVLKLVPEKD
- assay text: GSPT1 protein degradation in HL60 cells (Western blot)
- Format: cell-based
- protocol conditions: HL-60, compound at 10 nM, 24 h, gray value relative to Ctrl (DMSO), read-out: Remaining amount of GSPT1 protein (@10 nM/Ctrl)
observation type: remaining GSPT1 protein at 0.01 µM
Record the result as a number with its unit.

O=C1CCC(N2Cc3cc(CNCC4(F)CCN(c5ncc(-c6cccc(Cl)c6)cc5C(F)(F)F)CC4)ccc3C2=O)C(=O)N1 (stereo not shown) :: 0%
O=C1CCC(N2Cc3cc(CNCC4CCN(c5ncc(-c6cccc(C(F)(F)F)c6)cc5F)CC4)ccc3C2=O)C(=O)N1 (stereo not shown) :: 0%
O=C1CCC(N2Cc3cc(CNC(=O)C4CCN(c5ncc(-c6cccc(Cl)c6)cn5)CC4)ccc3C2=O)C(=O)N1 (stereo not shown) :: 14%
O=C1CCC(N2Cc3cc(CNCC4CCN(c5ncc(-c6cccc(Cl)c6)cc5F)CC4)ccc3C2=O)C(=O)N1 (stereo not shown) :: 0%
O=C1CCC(N2Cc3cc(CNCC4CCN(c5ncc(-c6cccc(Cl)c6)cc5C(F)(F)F)CC4)c(F)cc3C2=O)C(=O)N1 (stereo not shown) :: 47%
COc1cccc(-c2cnc(N3CCC(CNCc4ccc5c(c4)CN(C4CCC(=O)NC4=O)C5=O)CC3)c(C(F)(F)F)c2)c1 (stereo not shown) :: 0%
O=C1CCC(N2Cc3cc(CNCC4CCN(c5ncc(-c6cccc(F)c6)cc5C(F)(F)F)CC4)ccc3C2=O)C(=O)N1 (stereo not shown) :: 0%
O=C1CCC(N2Cc3cc(CNCC4CCN(c5cnc(-c6cccc7ccccc67)nc5)CC4)ccc3C2=O)C(=O)N1 (stereo not shown) :: 5%
N#Cc1cc(-c2cccc(Cl)c2)ccc1N1CCC(CNCc2ccc3c(c2)CN(C2CCC(=O)NC2=O)C3=O)CC1 (stereo not shown) :: 0%
Cc1cccc(-c2cnc(N3CCC(CNCc4ccc5c(c4)CN(C4CCC(=O)NC4=O)C5=O)CC3)c(C(F)(F)F)c2)c1 (stereo not shown) :: 0%

We next turn to a different compound, shown below.
Query block: Return value of remaining GSPT1 protein at 0.01 µM for input O=C1CCC(N2Cc3cc(CNCC4CCN(c5cnc(-c6cccc(Cl)c6)cn5)CC4)ccc3C2=O)C(=O)N1 (stereo not shown) , no commentary.
Result block: 0%
